System: Plasmodium falciparum
RUN DESCRIPTION: Antiplasmodial activity against chloroquine, pyrimethamine and proguanil-resistant Plasmodium falciparum K1 infected in human erythrocytes assessed as reduction in Parasitemia incubated for 72 hrs by SYBR Green I fluorescence-based method
Assay type: functional, organism-based
STATED CONDITIONS: K1, 72 h
Measured IC50 values are reported for all entries that follow.

MOLECULE: Cc1ccc(-c2ccc(C3(C)CC(S(=O)(=O)c4ccc(F)cc4)=C(c4ccc(/C(N)=N\O)cc4)O3)cc2)cc1 (stereo not drawn)
LT GT EQ: >
IC50, µM: 10

MOLECULE: CCC1(c2ccccc2OC)CC(S(=O)(=O)c2ccc(F)cc2)=C(c2ccc(/C(N)=N\O)cc2)O1 (stereo not drawn)
LT GT EQ: =
IC50, µM: 7.88

MOLECULE: CC1(Cc2ccccc2)CC(S(=O)(=O)c2cccc(C(F)(F)F)c2)=C(c2ccc(/C(N)=N\O)cc2)O1 (stereo not drawn)
LT GT EQ: =
IC50, µM: 6.54

MOLECULE: CC1(c2ccc(-c3cccc(/C(N)=N\O)c3)cc2)CC(S(=O)(=O)c2ccc(F)cc2)=C(c2ccc(/C(N)=N\O)cc2)O1 (stereo not drawn)
LT GT EQ: =
IC50, µM: 4.34

MOLECULE: N/C(=N/O)c1ccc(C2=C(S(=O)(=O)c3ccc(F)cc3)CC(c3ccccc3)(c3ccccc3)O2)cc1
LT GT EQ: =
IC50, µM: 3.9

MOLECULE: CC1(Cc2ccccc2)CC(S(=O)(=O)c2ccccc2F)=C(c2ccc(/C(N)=N\O)cc2)O1 (stereo not drawn)
LT GT EQ: >
IC50, µM: 10

MOLECULE: CC1(c2ccc(-c3ccc(/C(N)=N\O)cc3)cc2)CC(S(=O)(=O)c2ccc(F)cc2)=C(c2ccc(/C(N)=N\O)cc2)O1 (stereo not drawn)
LT GT EQ: =
IC50, µM: 4.93

MOLECULE: COc1ccc(C2(c3ccccc3)CC(S(=O)(=O)c3ccc(F)cc3)=C(c3ccc(/C(N)=N\O)cc3)O2)cc1 (stereo not drawn)
LT GT EQ: =
IC50, µM: 4.17
